Counter-ions that a name gives are not always drawn.
The listing below reports CC-v2 (curve classes) for compounds tested on recombinant human AChE (Homo sapiens, UniProt P22303).
Sequence (P22303 32-614): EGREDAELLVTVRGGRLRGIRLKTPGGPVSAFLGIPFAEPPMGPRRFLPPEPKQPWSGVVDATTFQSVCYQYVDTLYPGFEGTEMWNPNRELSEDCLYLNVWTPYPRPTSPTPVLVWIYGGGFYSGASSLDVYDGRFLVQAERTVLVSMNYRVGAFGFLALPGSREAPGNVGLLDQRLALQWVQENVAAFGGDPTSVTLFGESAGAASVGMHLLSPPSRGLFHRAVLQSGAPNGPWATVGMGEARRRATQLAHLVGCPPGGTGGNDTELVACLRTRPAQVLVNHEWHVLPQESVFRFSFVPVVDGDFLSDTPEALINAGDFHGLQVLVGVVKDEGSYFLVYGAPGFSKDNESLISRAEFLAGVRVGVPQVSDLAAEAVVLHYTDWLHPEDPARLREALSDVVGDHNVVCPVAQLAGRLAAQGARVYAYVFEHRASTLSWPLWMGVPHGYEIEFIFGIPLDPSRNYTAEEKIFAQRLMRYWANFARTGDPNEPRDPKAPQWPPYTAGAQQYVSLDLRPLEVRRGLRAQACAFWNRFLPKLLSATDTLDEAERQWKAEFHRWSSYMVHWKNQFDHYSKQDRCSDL

compound: Nc1c2c(nc3ccccc13)CCCC2O.O=C(O)/C=C\C(=O)O (centres unmarked) [Hydroxytacrine maleate, reference compound]
CC-v2 (curve classes): -2.1

compound: CN(C)C(=S)SC(=S)N(C)C [Tetramethylthiuram monosulfide]
CC-v2 (curve classes): 4

compound: Cc1nc2ccccn2c(=O)c1CCN1CCC(C(=O)c2ccc(F)cc2)CC1 [Pirenperone]
CC-v2 (curve classes): 4

compound: CCCCCCCCCCCCCC[n+]1ccccc1 [Tetradecylpyridinium bromide]
CC-v2 (curve classes): 4

compound: O=C(Nc1cccc(C2=NCCN2)c1)Nc1cccc(C2=NCCN2)c1 [Imidocarb dipropionate, reference compound]
CC-v2 (curve classes): 4

compound: Cc1ccc(S(=O)(=O)Oc2ccc(N=Nc3ccc(-c4ccc(N=Nc5c(O)ccc6cc(S(=O)(=O)[O-])cc(S(=O)(=O)[O-])c56)c(C)c4)cc3C)cc2)cc1.[Na+].[Na+] [C.I. Acid Red 114]
CC-v2 (curve classes): 4

compound: CCOP(=O)(OCC)Oc1cc(C)nc(C(C)C)n1 [Diazoxon]
CC-v2 (curve classes): -1.1

compound: CN1CCc2cc(Cl)c(O)cc2[C@H]2c3ccccc3CC[C@@H]21 [Ecopipam, reference compound]
CC-v2 (curve classes): 4

compound: COc1nn(CSP(=S)(OC)OC)c(=O)s1 [Methidathion]
CC-v2 (curve classes): 4

compound: CCOP(=S)(Oc1cnc(C(C)(C)C)nc1)OC(C)C (centres unmarked) [Tebupirimfos]
CC-v2 (curve classes): -1.1

compound: CNC(=O)O/N=C(\SC)C(=O)N(C)C [Oxamyl]
CC-v2 (curve classes): -1.1

compound: CCOP(=S)(OCC)SCSc1ccc(Cl)cc1 [Carbophenothion]
CC-v2 (curve classes): 4

compound: C=CC[N+]1([C@H]2C[C@H]3[C@@H]4CC[C@H]5C[C@H](OC(C)=O)[C@@H](N6CCCCC6)C[C@]5(C)[C@H]4CC[C@]3(C)[C@H]2OC(=O)CC)CCCCC1 [Rapacuronium bromide, reference compound]
CC-v2 (curve classes): 4

compound: CCOP(=S)(OCC)SCn1c(=O)oc2cc(Cl)ccc21 [Phosalone]
CC-v2 (curve classes): -1.1

compound: N=C(N)NC(=O)c1nc(Cl)c(N)nc1N [Amiloride hydrochloride]
CC-v2 (curve classes): 4

compound: CN(C)C(=S)SSC(=S)N(C)C [Thiram]
CC-v2 (curve classes): 4

compound: CCCCN(CCCC)SN(C)C(=O)Oc1cccc2c1OC(C)(C)C2 [Carbosulfan]
CC-v2 (curve classes): -1.1
